Test system: KM12
Run Description: Growth inhibition of human KM12 cells
Format: functional
Measured Endpoint: TGI (µM)
One number for each entry, in µM.

State recorded TGI for all listed compounds.
1. CC(C)C[C@H](NC(=O)CCn1ccc2ncccc2c1=O)B(O)O
2. CC(C)C[C@H](NC(=O)CCn1ccc2ccc(Br)cc2c1=O)B(O)O
3. CC(C)C[C@H](NC(=O)Cn1ccc2ccc(Br)cc2c1=O)B(O)O
4. CC(C)C[C@H](NC(=O)CCn1ccc2ccccc2c1=O)B(O)O

[49.6, 4.38, 17.3, 29.8]

###

Test system: TK-10
Run Description: Growth inhibition of human TK10 cells
Format: functional
Answer each item with its documented GI50.

Example cases with answers are listed next.
{"Smiles Data": "CC(C)C[C@H](NC(=O)[C@H](Cc1ccccc1)NC(=O)c1cnccn1)B(O)O", "GI50": "1 nM"}
{"Smiles Data": "CC(C)C[C@H](NC(=O)Cn1ccc2ccc(Br)cc2c1=O)B(O)O", "GI50": "650 nM"}

State recorded GI50 for all listed compounds.
1. CC(C)C[C@H](NC(=O)CCn1ccc2ccccc2c1=O)B(O)O
2. CC(C)C[C@H](NC(=O)CCn1ccc2ncccc2c1=O)B(O)O

2930 nM
5160 nM

Param readout= GI50; system= TK-10; entry= CC(C)C[C@H](NC(=O)CCn1ccc2ccc(Br)cc2c1=O)B(O)O ; returns value.
370 nM
